Item-by-item account of Activity
- System: M21
- experimental_protocol: Cell cycle arrest in human M21 cells assessed as accumulation at G2/M phase at 5 times IC50 after 24 hrs using propidium iodide staining by flow cytometric analysis (reference value: 9%)
- Format: functional
Write it as a number; the unit % goes unstated.

COc1cc(NS(=O)(=O)c2ccc(N3CCNC3=O)cc2)cc(OC)c1: 59
Cc1cc(C)cc(NS(=O)(=O)c2ccc(N3CCNC3=O)cc2)c1: 78
COc1ccc(/C=C\c2cc(OC)c(OC)c(OC)c2)cc1O: 98
COc1cc(NS(=O)(=O)c2ccc(N3CCNC3=O)cc2)cc(OC)c1OC: 74
Cc1cccc(NS(=O)(=O)c2ccc(N3CCNC3=O)cc2)c1: 83
O=C1NCCN1c1ccc(S(=O)(=O)Nc2cccc(Cl)c2)cc1: 62
O=C1NCCN1c1ccc(S(=O)(=O)Nc2cccc(Br)c2)cc1: 78
COc1cccc(NS(=O)(=O)c2ccc(N3CCNC3=O)cc2)c1: 61
CCc1cccc(NS(=O)(=O)c2ccc(N3CCNC3=O)cc2)c1: 95
O=C1NCCN1c1ccc(S(=O)(=O)Nc2ccc3[nH]ccc3c2)cc1: 51

Proceeding to the next compound to report its Activity.
q: Record request: Activity value, item `Cc1ccc(C)c(NS(=O)(=O)c2ccc(N3CCNC3=O)cc2)c1`
a: 79

* * *

Item-by-item account of pIC50
- Test system: MCF7
- experimental_protocol: Antiproliferative activity against human MCF7 cells after 48 hrs by SRB assay
- Type: functional, cell-based
- condition_label: MCF7, 48 h
The quantity pIC50 is defined as the negative base-10 logarithm of the molar concentration.

Use the examples below as a reference point.
Cc1ccc(NS(=O)(=O)c2ccc(N3CCNC3=O)cc2)cc1C: 6.64
COc1cccc(NS(=O)(=O)c2ccc(N3CCNC3=O)cc2)c1: 6.92
O=C1NCCN1c1ccc(S(=O)(=O)Nc2ccc3c(c2)OCO3)cc1: 6.34
COc1cc(NS(=O)(=O)c2ccc(N3CCNC3=O)cc2)cc(OC)c1: 6.77
O=C1NCCN1c1ccc(S(=O)(=O)Nc2ccc(F)cc2)cc1: 6.16
Cc1ccc(C)c(NS(=O)(=O)c2ccc(N3CCNC3=O)cc2)c1: 7.32
O=C1NCCN1c1ccc(S(=O)(=O)Nc2ccc(Cl)cc2)cc1: 6.77
O=C1NCCN1c1ccc(S(=O)(=O)Nc2ccc(F)c(F)c2)cc1: 6.21

q: Record request: pIC50 value, item `Cc1cccc(NS(=O)(=O)c2ccc(N3CCNC3=O)cc2)c1`
a: 6.72

q: Record request: pIC50 value, item `COc1ccc(NS(=O)(=O)c2ccc(N3CCNC3=O)cc2)cc1OC`
a: 6.21

q: Record request: pIC50 value, item `O=C1NCCN1c1ccc(S(=O)(=O)Nc2ccccc2)cc1`
a: 6.33

q: Record request: pIC50 value, item `COc1ccccc1NS(=O)(=O)c1ccc(N2CCNC2=O)cc1`
a: 6.11

* * *

Item-by-item account of pIC50
- experimental_protocol: Antiproliferative activity against mouse P388D1 after 48 hrs by SRB assay
- condition_label: P388D1, 48 h
The quantity pIC50 is defined as the negative base-10 logarithm of the molar concentration.

Use the examples below as a reference point.
COc1cc(NS(=O)(=O)c2ccc(N3CCNC3=O)cc2)cc(OC)c1OC: 7.42
CCc1cccc(NS(=O)(=O)c2ccc(N3CCNC3=O)cc2)c1: 6.60
COc1cc(NS(=O)(=O)c2ccc(N3CCNC3=O)cc2)cc(OC)c1: 6.70
CC(=O)O[C@H]1C(=O)[C@@]2(C)[C@H]([C@H](OC(=O)c3ccccc3)[C@]3(O)C[C@H](OC(=O)[C@H](O)[C@@H](NC(=O)c4ccccc4)c4ccccc4)C(C)=C1C3(C)C)[C@]1(OC(C)=O)CO[C@@H]1C[C@@H]2O: 7.46

Proceeding to the next compound to report its pIC50.
q: Record request: pIC50 value, item `O=C1NCCN1c1ccc(S(=O)(=O)Nc2cccc(Cl)c2)cc1`
a: 7.11

* * *

Item-by-item account of IC50
- Test system: MCF7
- experimental_protocol: Antiproliferative activity against human MCF7 cells after 48 hrs by SRB assay
- Type: functional, cell-based
- condition_label: MCF7, 48 h
Write it as a number; the unit µM goes unstated.

Use the examples below as a reference point.
O=C1NCCN1c1ccc(S(=O)(=O)Nc2ccc(I)cc2)cc1: 0.6
COc1cc(NS(=O)(=O)c2ccc(N3CCNC3=O)cc2)cc(OC)c1OC: 0.018
O=C1NCCN1c1ccc(S(=O)(=O)Nc2cccc(Oc3ccccc3)c2)cc1: 0.22
O=C1NCCN1c1ccc(S(=O)(=O)Nc2ccc3[nH]ccc3c2)cc1: 0.17
Cc1ccc(NS(=O)(=O)c2ccc(N3CCNC3=O)cc2)c(C)c1: 0.23

Proceeding to the next molecule to report its IC50.
q: Record request: IC50 value, item `O=C1NCCN1c1ccc(S(=O)(=O)Nc2ccc(Br)cc2)cc1`
a: 0.24

src = ChEMBL document CHEMBL1909507
